Reference source: PubChem BioAssay (NCI)

# growth per record follows
# Test system: 786-0 renal
# experimental-details: NCI-60 one-dose screen, 48 h (100 = growth as untreated, 0 = no growth, -100 = all killed)
# cond: 10 µM
# Protocol: Cells are grown in 96 well plates and exposed to the test compound for 48 hours. Compounds are tested at a single concentration, which is 10^-5 M for most compounds. The reported endpoint is percent growth (GI% or GIPRCNT), where numbers from 0 - 100% represent growth inhibition, and numbers from -100% - 0 represent cell death. For example, a value of 40 represents 60% growth inhibition. A value of 0 means no net growth occurred over the course of the experiment. […]
This is part of a sample that, as a whole, favours compounds with a hit. Of some 83,000 tested, about 20% had one in any assay.
Just the number please, in %, no unit attached.

Recorded growth, per entry:
Per the records, this molecule ( N#CCCN1C/C(=C/c2ccc(Br)cc2)C(=O)/C(=C/c2ccc(Br)cc2)C1 ) has growth equal to -67.9

Briefly, growth measured for CCN(CC)CCN1CC(=O)Nc2cc(Cl)ccc21 : 115

The molecule listed as Nc1nc(N=Nc2ccc(O)cc2)cc(=O)[nH]1 shows growth equal to 105

The molecule listed as CC(=O)c1cc(Cl)ccc1O has a reported growth of 104

Shift focus to the following entry.
growth reading for CCCCCCN1C(=O)C2=C(c3ccc(Cl)cc3)Nc3c(c(C)nn3-c3ccccc3)C2c2ccccc21 (stereo not drawn) : 89
